compounds and their reported MIC P. aeruginosa GN_043, PmxR
System: P. aeruginosa GN_043, PmxR
Settings: P. aeruginosa GN_043, PmxR
Positions of bridges follow the written chain, without caps; N, C: chain ends. Non-standard residues stand in square brackets, D forms with d. Residues, ends and D or L forms follow the SMILES beside them. *: point of attachment. Decanoyl(3R-OH) = CCCCCCC[C@@H](O)CC(=O)*; dOrn = NCCC[C@@H](N)C(=O)O; dDab = NCC[C@@H](N)C(=O)O; dDap = NC[C@@H](N)C(=O)O; Dab = NCC[C@H](N)C(=O)O

{"Compound": "CCCCCCC[C@@H](O)CC(=O)N[C@H](CN)C(=O)N[C@H]1CCNC(=O)[C@H]([C@@H](C)O)NC(=O)[C@H](CCN)NC(=O)[C@H](CCN)NC(=O)[C@H](CC(C)C)NC(=O)[C@@H](Cc2ccccc2)NC(=O)[C@H](CCN)NC1=O [compound 6395] ({Decanoyl(3R-OH)}-[dDap][Dab][Dab][dF]L[Dab][Dab]T; lactam 2-C)", "MIC P. aeruginosa GN_043, PmxR [µg/mL]": 2}
{"Compound": "CCCCCCC[C@@H](O)CC(=O)N[C@H](CCN)C(=O)N[C@H]1CCNC(=O)[C@H](CC(C)C)NC(=O)[C@H](CCN)NC(=O)[C@H](CCN)NC(=O)[C@H](CC(C)C)NC(=O)[C@@H](Cc2ccccc2)NC(=O)[C@H](CCN)NC1=O [Octapeptin C4 (631), reference compound] ({Decanoyl(3R-OH)}-[dDab][Dab][Dab][dF]L[Dab][Dab]L; lactam 2-C)", "MIC P. aeruginosa GN_043, PmxR [µg/mL]": 2}
{"Compound": "CCCCCCC[C@@H](O)CC(=O)N[C@H](CCCN)C(=O)N[C@H]1CCNC(=O)[C@H](CC(C)C)NC(=O)[C@H](CCN)NC(=O)[C@H](CCN)NC(=O)[C@H](Cc2ccccc2)NC(=O)[C@@H](CC(C)C)NC(=O)[C@H](CCN)NC1=O [compound 6428] ({Decanoyl(3R-OH)}-[dOrn][Dab][Dab][dL]F[Dab][Dab]L; lactam 2-C)", "MIC P. aeruginosa GN_043, PmxR [µg/mL]": 4}
